Measured values drawn from PubChem BioAssay AID1159580 for this set.

Test: chemical genetic growth profiling, strain panel (AID 1159580);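 further: tested at 20 µM; growth read once vehicle control cultures reached saturation at 30 °C; 1 = growth at the plate median or of vehicle wells; lower values mean less growth of the strain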
Conditions: S. cerevisiae deletion strains, growth OD, locus YLR371W, strain rom2, stronger effect = lower value
Out of some 5,500 compounds screened, about 2,000 (36%) were called active. Roughly 18% stayed inconclusive and do not appear here. This is one part of the list. Where a SMILES comes first, the peptide text is derived from it. Bridges are numbered along the chain shown (N, C = ends). [ ]: non-standard residue; d: D form. The star is where a group is joined. ξ: configuration not given here. ξDab(CH2SO3H) = NC(CCNCS(=O)(=O)O)C(=O)O; Heptanoyl(6-Me) = CC(C)CCCCC(=O)*; Dab = NCC[CH](N)C(=O)O
readoutName: normalized growth

The examples below pair each entry with its known result.
C#C[C@]1(OC(C)=O)CCC2C3CCC4=CC(=O)CC[C@@H]4C3CC[C@@]21C (some centres undefined) | 0.983 (inactive)
O=c1cc(CO)occ1O | 1.04 (inactive)
O=C1C(O)=C(O)C(=O)C(O)=C1O | 1 (inactive)

// next item, normalized growth requested
Challenge: Consider the compound CCC(C)C1NC(=O)C(CCNCS(=O)(=O)O)NC(=O)C(NC(=O)C(CCNCS(=O)(=O)O)NC(=O)C(NC(=O)C(CCNCS(=O)(=O)O)NC(=O)CCCCC(C)C)C(C)O)CCNC(=O)C(C(C)O)NC(=O)C(CCNCS(=O)(=O)O)NC(=O)C(CCNCS(=O)(=O)O)NC(=O)C(C(C)CC)NC1=O (centres undefined) ({Heptanoyl(6-Me)}-[ξDab(CH2SO3H)]T[ξDab(CH2SO3H)][Dab][ξDab(CH2SO3H)]II[ξDab(CH2SO3H)][ξDab(CH2SO3H)]T; lactam 4-C; configuration not given here) and give its recorded normalized growth.
Response given: 0.962 (inactive)

====

Experiment: chemical genetic growth profiling, strain panel (AID 1159580);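 further: tested at 20 µM; growth read once vehicle control cultures reached saturation at 30 °C; 1 = growth at the plate median or of vehicle wells; lower values mean less growth of the strain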
Conditions: S. cerevisiae deletion strains, growth OD, locus YLR058C, strain SHM2, stronger effect = lower value
Out of some 5,500 compounds screened, about 2,000 (36%) were called active. Roughly 18% stayed inconclusive and do not appear here. This is one part of the list.
readoutName: normalized growth
Please reply with the value in numeric form only.

CC1=CCC2C3(C)C1=CC(=O)OC3CC1C(C)(C)CC(O)C(O)C12C (stereo unspecified) | 1.04

Challenge: Consider the compound C[C@@H]1CC[C@H]2[C@@H](C)C(O)O[C@@H]3O[C@@]4(C)CC[C@@H]1[C@]32OO4 (stereo partly specified) and give its recorded normalized growth.
Response given: 0.403

Challenge: Identify the reported normalized growth for the following entry. CCC(C)C(NC)C(=O)O (stereo unspecified)
Response given: 0.935

Challenge: Provide measured normalized growth value, entry: `Nc1c2ccccc2nc2ccccc12`
Response given: 0.613

Challenge: Supply normalized growth value. Item: `CC(C)(C#N)O[C@@H]1O[C@H](CO)[C@@H](O)[C@H](O)[C@H]1O`
Response given: 1.01

Challenge: For `C[C@@H]1C(=O)O[C@H]2[C@H]1CC[C@@]1(C)C=CC(=O)[C@@]3(C)O[C@@]213` , write its normalized growth.
Response given: 1.01

====

Assay: chemical genetic growth profiling, strain panel (AID 1159580);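 further: tested at 20 µM; growth read once vehicle control cultures reached saturation at 30 °C; 1 = growth at the plate median or of vehicle wells; lower values mean less growth of the strain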
Conditions: S. cerevisiae deletion strains, growth OD, locus YHR013C, strain ard1
About 2,000 (36%) of roughly 5,500 compounds were called active. Another 18% or so got no clear call; they are omitted. Rule as the data show it: active = normalized growth mostly below about 0.91 (no sharp cut-off); inconclusive = no clear call, values can overlap the other calls; inactive = mostly above about 0.92. The list shows a part of the results.
// one of active, inactive, no free text

Cc1cc(O)ccc1Cl | inactive

Challenge: Given `Cc1cc(O)cc(C)c1Cl` , state the outcome it received in this test.
Response given: inactive

Challenge: Recorded test call requested for `C[C@@H]1C(=O)O[C@H]2[C@H]1CC[C@@]1(C)C=CC(=O)[C@@]3(C)O[C@@]213`
Response given: inactive

Challenge: Outcome? C/C=C(/C)C(=O)OC1CCC2(C)C3CCC4C5(O)CC(O)C6(O)C(CN7CC(C)CCC7C6(C)O)C5(O)CC42OC13O (configuration not stated)
Response given: inactive

Challenge: What did this assay record as the result for `CC1=NS(=O)(=O)c2cc(Cl)ccc2N1` ?
Response given: inactive

Challenge: Hi, do you know how COc1c(-c2coc3cc4c(cc3c2=O)CC(O)C(C)(C)O4)ccc2c1C=CC(C)(C)O2 (configuration not stated) came out in this test?
Response given: inactive

Challenge: Hi, do you know how N#CC(O[C@@H]1O[C@H](CO[C@@H]2O[C@H](CO)[C@@H](O)[C@H](O)[C@H]2O)[C@@H](O)[C@H](O)[C@H]1O)c1ccccc1 (some centres not stated) came out in this test?
Response given: inactive

Challenge: Dear all, I need the recorded test outcome for `O=C1c2c(O)cccc2Cc2cccc(O)c21` , thank you.
Response given: inactive

Challenge: Given `O=C(CNC(=O)c1ccc(Cl)cc1)NO` , state the outcome it received in this test.
Response given: inactive

Challenge: Each compound tested received a call. Report the one for `COC(=O)Nc1nc2ccc(Sc3ccccc3)cc2[nH]1` .
Response given: inactive

Challenge: // outcome(item) with item = `C[C@@H]1CC[C@H]2[C@@H](C)C(=O)O[C@@H]3O[C@@]4(C)CC[C@@H]1[C@]32OO4`
Response given: active

Challenge: Which outcome was entered for the compound COC(=O)Nc1nc2ccc(S(=O)c3ccccc3)cc2[nH]1 (configuration not stated) in this test?
Response given: inactive
